Reference source for all entries: paper PMC6797808

Here the recorded pIC50 is given for each entry.
Molecular target: PHL (Photorhabdus asymbiotica, UniProt C7BLE4)
Sequence (C7BLE4 entry or part of it): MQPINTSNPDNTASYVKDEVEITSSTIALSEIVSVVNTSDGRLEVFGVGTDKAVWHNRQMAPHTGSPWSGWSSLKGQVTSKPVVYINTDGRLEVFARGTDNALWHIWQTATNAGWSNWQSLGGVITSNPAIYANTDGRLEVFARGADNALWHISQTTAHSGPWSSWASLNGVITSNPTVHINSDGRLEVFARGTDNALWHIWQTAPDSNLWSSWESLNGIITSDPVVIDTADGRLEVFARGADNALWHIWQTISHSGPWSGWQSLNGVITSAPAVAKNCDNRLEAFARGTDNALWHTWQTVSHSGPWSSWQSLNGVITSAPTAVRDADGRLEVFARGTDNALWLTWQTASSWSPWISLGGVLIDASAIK
Experiment: SPR competitive inhibition of PHL binding to α-L-fucoside sensor chip
Details: 25 °C, three independent measurements
The quantity pIC50 is defined as the negative base-10 logarithm of the molar concentration.

Observe how each entry below is paired with its result.
C[C@H](O)[C@@H](O)[C@@H](O)[C@H](O)C=O [L -Fuc, L-fucose, reference compound]
3.44
C[C@@H]1O[C@@H](CCn2cc(COCC(COCc3cn(CC[C@@H]4O[C@@H](C)[C@@H](O)[C@@H](O)[C@@H]4O)nn3)(COCc3cn(CC[C@@H]4O[C@@H](C)[C@@H](O)[C@@H](O)[C@@H]4O)nn3)COCC(COCc3cn(CC[C@@H]4O[C@@H](C)[C@@H](O)[C@@H](O)[C@@H]4O)nn3)(COCc3cn(CC[C@@H]4O[C@@H](C)[C@@H](O)[C@@H](O)[C@@H]4O)nn3)COCc3cn(CC[C@@H]4O[C@@H](C)[C@@H](O)[C@@H](O)[C@@H]4O)nn3)nn2)[C@@H](O)[C@H](O)[C@@H]1O
7.43
CO[C@@H]1O[C@@H](C)[C@@H](O)[C@@H](O)[C@@H]1O [α-Me-Fuc, methyl α-L-fucopyranoside, reference compound]
4.41

stdin: GET /values?readout=pIC50&item= C[C@@H]1O[C@@H](CCN=[N+]=[N-])[C@@H](O)[C@H](O)[C@@H]1O [Azide 1]
stdout: 4.94

stdin: GET /values?readout=pIC50&item= C[C@@H]1OC(CCCCC2O[C@@H](C)[C@@H](O)[C@@H](O)[C@@H]2O)[C@@H](O)[C@H](O)[C@@H]1O (some centres unmarked) [Difucoside 5, 1,4-bis(fucopyranosyl)butane]
stdout: 5.38

stdin: GET /values?readout=pIC50&item= C[C@@H]1O[C@@H](CCn2cc(COc3c4cccc3Cc3cccc(c3OCc3cn(CC[C@@H]5O[C@@H](C)[C@@H](O)[C@@H](O)[C@@H]5O)nn3)Cc3cccc(c3OCc3cn(CC[C@@H]5O[C@@H](C)[C@@H](O)[C@@H](O)[C@@H]5O)nn3)Cc3cccc(c3OCc3cn(CC[C@@H]5O[C@@H](C)[C@@H](O)[C@@H](O)[C@@H]5O)nn3)C4)nn2)[C@@H](O)[C@H](O)[C@@H]1O
stdout: 6.75

stdin: GET /values?readout=pIC50&item= C[C@@H]1O[C@@H](CCn2cc(COCC(COCc3cn(CC[C@@H]4O[C@@H](C)[C@@H](O)[C@@H](O)[C@@H]4O)nn3)(COCc3cn(CC[C@@H]4O[C@@H](C)[C@@H](O)[C@@H](O)[C@@H]4O)nn3)COCc3cn(CC[C@@H]4O[C@@H](C)[C@@H](O)[C@@H](O)[C@@H]4O)nn3)nn2)[C@@H](O)[C@H](O)[C@@H]1O
stdout: 6.73

stdin: GET /values?readout=pIC50&item= C[C@@H]1O[C@@H](CCn2cc(COc3c4cc(C(C)(C)C)cc3Cc3cc(C(C)(C)C)cc(c3OCc3cn(CC[C@@H]5O[C@@H](C)[C@@H](O)[C@@H](O)[C@@H]5O)nn3)Cc3cc(C(C)(C)C)cc(c3OCc3cn(CC[C@@H]5O[C@@H](C)[C@@H](O)[C@@H](O)[C@@H]5O)nn3)Cc3cc(C(C)(C)C)cc(c3OCc3cn(CC[C@@H]5O[C@@H](C)[C@@H](O)[C@@H](O)[C@@H]5O)nn3)C4)nn2)[C@@H](O)[C@H](O)[C@@H]1O
stdout: 6.71
